Source: paper PMC6151825

# Test system: Cis-A2780 cells
# protocolNotes: MTS cell viability assay, Cis-A2780
# Assay type: cell-based
# particulars: Homo sapiens, cisplatin-resistant ovarian cancer cell line, 48 h exposure, read-out: IC50 ± SD, Cis-A2780
# Procedure: Our research group is extensively involved in studying the role of vacuolar (H^+)-ATPase in breast as well as ovarian cancer cell lines. […] CellTiter 96 AQueous One Solution cell proliferation assay (MTS) was used to measure the in vitro cell viability of cells, and the MTS purchased from Promega (Madison, WI, USA). […] The absorbances at 492 nm were measured using a Microplate Reader (Synergy HT, Biotek Instruments, Winooski, VT, USA). […]
measurementLabel: IC50 (µM)
# unit: µM | format: bare number

Q: Supply reported IC50 belonging to this compound: CN(C)CCCOc1ccc(-c2nc3ccc(-c4nc5ccc(N6CCN(C)CC6)cc5[nH]4)cc3[nH]2)cc1
Ans: 12.3

Q: Supply reported IC50 belonging to this compound: CN(C)CCOc1ccc(-c2nc3ccc(-c4nc5ccc(N6CCN(C)CC6)cc5[nH]4)cc3[nH]2)cc1
Ans: 10.7

Q: Supply reported IC50 belonging to this compound: CO/C1=C\C(C)=C\[C@@H](C)[C@@H](O)[C@@H](C)C/C(C)=C/C=C/[C@H](OC)[C@@H]([C@@H](C)[C@@H](O)[C@H](C)[C@@]2(O)C[C@@H](O)[C@H](C)[C@@H](C(C)C)O2)OC1=O [Baf A1, Bafilomycin A1, reference compound]
Ans: 0.008

Q: Supply reported IC50 belonging to this compound: CN1CCC(Oc2ccc(-c3nc4ccc(-c5nc6ccc(N7CCN(C)CC7)cc6[nH]5)cc4[nH]3)cc2)CC1
Ans: 25.2

Q: Supply reported IC50 belonging to this compound: CN1CCN(c2ccc3nc(-c4ccc5nc(-c6ccc(OCCC(C)(C)C)cc6)[nH]c5c4)[nH]c3c2)CC1
Ans: 1.34

Q: Supply reported IC50 belonging to this compound: COCCOc1ccc(-c2nc3ccc(-c4nc5ccc(N6CCN(C)CC6)cc5[nH]4)cc3[nH]2)cc1
Ans: 3.03

Q: Supply reported IC50 belonging to this compound: CCOc1ccc(-c2nc3cc(-c4nc5cc(N6CCN(C)CC6)ccc5[nH]4)ccc3[nH]2)cc1
Ans: 3.95
